Target: T1, HLA-DR15 molecule (DRB1*1501) (human)
T1 construct: HLA class II heterodimer
Test: competitive ELISA, tracer A3 152-166
Below, each of the binders is paired with its reported IC50 value.
Measured Attribute: IC50 (nM)

binder="QCFFCFKELEGWEPD (synthetic 15-mer) [survivin peptide 56-70]" units_text=nM test_result=3000
binder="PDLAQCFFCFKELEG (synthetic 15-mer) [survivin peptide 52-66]" units_text=nM test_result=2240
binder="ISTFKNWPFLEGCAC (synthetic 15-mer) [survivin peptide 19-33]" units_text=nM test_result=81
binder="FEELTLGEFLKLDRE (synthetic 15-mer) [survivin peptide 93-107]" units_text=nM test_result=612
binder="AKKVRRAIEQLAAMD (synthetic 15-mer) [survivin peptide 128-142]" units_text=nM test_result=284
binder="HRISTFKNWPFLEGC (synthetic 15-mer) [survivin peptide 17-31]" units_text=nM test_result=3
binder="KQFEELTLGEFLKLD (synthetic 15-mer) [survivin peptide 91-105]" units_text=nM test_result=3160
binder="LSVKKQFEELTLGEF (synthetic 15-mer) [survivin peptide 87-101]" units_text=nM test_result=4800
binder="KELEGWEPDDDPIEE (synthetic 15-mer) [survivin peptide 62-76]" units_text=nM test_result=65000
